// reported Fold IC50 increase relative to wild-type for each item listed
- Target Or System: HIV-1 JR-CSF Env W395A (HIV-1 (isolate JR-CSF)) (UniProt P20871)
- Assay Overview: cell-based or functional assay
Provide only the numeric value, understood in fold.

**Query** // query Fold IC50 increase relative to wild-type value for entry PGT-128 (antibody, V domains shown) VH: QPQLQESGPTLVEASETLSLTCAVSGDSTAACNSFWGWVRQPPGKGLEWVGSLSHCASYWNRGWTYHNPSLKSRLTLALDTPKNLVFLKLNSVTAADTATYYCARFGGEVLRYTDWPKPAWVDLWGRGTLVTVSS VL: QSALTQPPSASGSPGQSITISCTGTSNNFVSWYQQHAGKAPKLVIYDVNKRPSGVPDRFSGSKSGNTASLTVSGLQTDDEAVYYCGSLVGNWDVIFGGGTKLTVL
**Result** 0.8

**Query** // returns reported Fold IC50 increase relative to wild-type for input PGT-123 (antibody, V domains shown) VH: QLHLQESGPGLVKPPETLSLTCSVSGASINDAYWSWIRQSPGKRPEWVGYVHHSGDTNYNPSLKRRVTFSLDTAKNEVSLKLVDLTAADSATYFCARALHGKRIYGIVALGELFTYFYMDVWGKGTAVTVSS VL: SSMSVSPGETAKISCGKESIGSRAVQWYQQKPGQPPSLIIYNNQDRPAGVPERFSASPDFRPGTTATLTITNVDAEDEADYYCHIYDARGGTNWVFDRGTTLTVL
**Result** 0.4

**Query** Item PGT-126 (antibody, V domains shown) VH: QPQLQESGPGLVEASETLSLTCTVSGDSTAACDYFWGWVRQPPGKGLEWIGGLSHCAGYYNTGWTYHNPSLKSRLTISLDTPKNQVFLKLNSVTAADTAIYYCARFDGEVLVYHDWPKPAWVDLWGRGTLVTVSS VL: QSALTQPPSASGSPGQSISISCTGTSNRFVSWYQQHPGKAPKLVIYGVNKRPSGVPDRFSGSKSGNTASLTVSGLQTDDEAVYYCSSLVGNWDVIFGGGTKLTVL has what recorded Fold IC50 increase relative to wild-type?
**Result** 0.6
